B1: SPDEF (parent)
chain: FQELAGKELCAMSEEQFRQRSPLG

# Variants of: B1
# Assay Notes: protein stability index of a GFP-peptide fusion (GPS, HEK-293T) (PSI 1-6); higher = more stable;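 further: lentivirally expressed fusions sorted by FACS into six bins by GFP to DsRed ratio, PSI derived from sequencing read proportions per bin multiplied by bin number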
# Setup Conditions: c terminus: a fixed tail appended
Each entry below carries its reported protein stability index.
Measurement Type: protein stability index

> print(dat)
                biopolymer.sequence  meas.value
 1  FQELAGKELCAMSEEQFIQRSPLG [R18I]        2.73
 2   FQELAGWELCAMSEEQFRQRSPLG [K7W]        1.73
 3  FQELAGKELCAMSEEQFRQSSPLG [R20S]        2.88
 4   FQELAGKMLCAMSEEQFRQRSPLG [E8M]         2.5
 5  FQELAGKELCAMSEEQFRQRSSLG [P22S]        2.92
 6   FQELCGKELCAMSEEQFRQRSPLG [A5C]        2.69
 7  FQELAGKELCAMSEEQFRQRAPLG [S21A]        2.73
 8   FGELAGKELCAMSEEQFRQRSPLG [Q2G]        2.44
 9  FQELAGKELCAMSEEFFRQRSPLG [Q16F]        2.13
10   LQELAGKELCAMSEEQFRQRSPLG [F1L]        4.45
11  FQELAGKELCAMSEEQFRQVSPLG [R20V]         2.1
12   FQEHAGKELCAMSEEQFRQRSPLG [L4H]        3.85
13  FQELAGKELCAMSFEQFRQRSPLG [E14F]        2.22
14   FQELAAKELCAMSEEQFRQRSPLG [G6A]         2.4
15  FQELAGKELCAMSEENFRQRSPLG [Q16N]        2.74
16  FQELAGKELCAMSQEQFRQRSPLG [E14Q]        2.63
17  FQELAGKELCAMSEEMFRQRSPLG [Q16M]        2.23
18   FQELAGGELCAMSEEQFRQRSPLG [K7G]           3
19  FQELAGKELCAMSEEQFRDRSPLG [Q19D]        2.87
20   FQEIAGKELCAMSEEQFRQRSPLG [L4I]        3.15
21  FQELAGKELCGMSEEQFRQRSPLG [A11G]        2.94
22  FQELAGKELCAMSEEQFRQRSPCG [L23C]        2.63
23  FQELAGKELCAMSEEQFRQRSPLI [G24I]         2.1
24  FQELAGKELCAMSEEQFRQRCPLG [S21C]        2.51
25  FQELAGKELCAMSEVQFRQRSPLG [E15V]        1.93
26  FQELAGKELCAMSEEWFRQRSPLG [Q16W]        1.92
27  FQELAGKELCYMSEEQFRQRSPLG [A11Y]        2.67
28   FIELAGKELCAMSEEQFRQRSPLG [Q2I]        2.17
29   FQELDGKELCAMSEEQFRQRSPLG [A5D]        3.71
30  FQELAGKELCAMSCEQFRQRSPLG [E14C]        2.46
31   FEELAGKELCAMSEEQFRQRSPLG [Q2E]        4.17
32  FQELAGKELCAMSYEQFRQRSPLG [E14Y]        2.49
33   FQELANKELCAMSEEQFRQRSPLG [G6N]         3.4
34   FQELSGKELCAMSEEQFRQRSPLG [A5S]        2.24
35  FQELAGKELCAMSEEQFRQRSPLF [G24F]        2.05
36  FQELAGKELCAMSEEQFRQRSPIG [L23I]         2.9
37  FQELAGKELCAMSEAQFRQRSPLG [E15A]        3.05
38  FQELAGKELCAMSEEQFQQRSPLG [R18Q]        2.81
39   FQELAGKSLCAMSEEQFRQRSPLG [E8S]        2.12
40   FQLLAGKELCAMSEEQFRQRSPLG [E3L]        2.22
41  FQELAGKELCSMSEEQFRQRSPLG [A11S]        2.31
42  FQELAGKELCAMCEEQFRQRSPLG [S13C]        2.11
43   FQELAGKEDCAMSEEQFRQRSPLG [L9D]        4.79
44   EQELAGKELCAMSEEQFRQRSPLG [F1E]        5.36
45   FWELAGKELCAMSEEQFRQRSPLG [Q2W]        2.14
46  FQELAGKELCHMSEEQFRQRSPLG [A11H]        3.35
